# credit: ChEMBL document CHEMBL1201862

- Test system: SW-620
- ASSAY: NCI tumour cell line growth inhibition, 48 h
Active and inactive are the calls of the source. No stated cut-off is given here; in the data, active = GI50 up to about 1.1 µM and inactive = higher.
Answer with one of the outcomes active, inactive

Tell me the recorded outcome of this test for Cc1ccc(/N=N/c2c(C)nn(-c3ccccc3)c2C)c(Br)c1 . inactive

Outcome logged for CCCCCCCCCCCCCCCCCCC1=C(O)C(=O)C=C(OC)C1=O in this assay: inactive

Check the results log: what was the call for CC(=O)OCCOCCN1CCN(C2=C(Cl)C(=O)c3c(O)ccc(O)c3C2=O)CC1 ? active

Per the records of this test, what outcome belongs to COc1cc2c(cc1OC)C(=O)Cc1ccc3c(c1CNCC2)OCO3 ? inactive

Write down the call the test reported for this compound. Item: O=c1[nH]nc(Cc2ccccc2)n1/N=C/c1ccc([N+](=O)[O-])cc1 inactive

Given C/C=C/OC1C(C2COC(C)(C)O2)OC2OC(C)(C)OC21 (stereo not drawn) , state the outcome it received in this test. inactive

Which outcome did this test record for the compound CC(C)(C)c1ccc(OCCOc2ccc(C(C)(C)C)cc2NC=O)c(NC=O)c1 ? inactive

Each compound tested received a call. Report the one for O=C1c2ccccc2C(=O)C1(O)c1c[nH]c2ccccc12 . inactive

Could you check what this test reported for Oc1ccccc1-c1n[nH]c(-c2ccccc2O)n1 ? inactive

Can you look up the reported call for CC1(C)OCC(C2OC3OC(C)(C)OC3C2c2ccccc2)O1 (stereo not drawn) for me? inactive

Please state the recorded outcome for this compound: CN(C)CCNC(=O)c1cccc2cc3c(Cl)cccc3nc12 active

How did this test come out for O=c1o[nH]/c(=N/c2ccccc2)n1-c1ccccc1 ? inactive

Tell me the recorded outcome of this test for CN1CC=C(c2c(N)nc(N)[nH]c2=O)CC1 . inactive

Any idea what this test logged for CC1(c2ccc(F)cc2)C2C(=O)NC(=O)C1C(=O)NC2=O (stereo not drawn) ? inactive

How was CCN1CCCCCCCCCC(=N/O)/C(=N\O)C1 classified in this test? inactive

Tell me the recorded outcome of this test for CC(C)[C@@H](C)CC[C@@H](C)C1CC=C2[C@@H]3CCC4C[C@@H](O[Si](C)(C)C(C)(C)C)CC[C@]4(C)C3CC[C@@]21C (stereo partly drawn) . inactive

Could you please tell me the result logged for CC(=O)c1ccc2c(c1)CC1(C2)Cc2cc3c(c(C(=O)O)c2C1)CCC3 (stereo not drawn) in this assay? inactive

Dear colleague, could you share the recorded outcome for CCOC(=O)/C=C/C1OC(C)(C)OC1/C=C/C(=O)OCC (stereo not drawn) when you have a moment? inactive

Would you mind telling me which call this test gave CC1=C[C@]2(O)C(=O)[C@H](C)C[C@H]3[C@@H](CC[C@@](C)(O)/C=C\2C1=O)C3(C)C ? inactive

Please let me know the test result on file for C[C@]12CC[C@H]3[C@@H](CCC4=C[C@@H](OC5OCC(OC6OC(CO)C(O)C(O)C6O)C(O)C5O)CC[C@@]43C=O)[C@@]1(O)CCC2C1=CC(=O)OC1 (stereo partly drawn) . active

I'd appreciate the recorded outcome for CN(NC(=O)c1ccc(Cl)cc1)C1=NCCCCN1 from this test. inactive

Just curious, what result did CC(C)C1=CC23CCC4C(C)(C(=O)O)CCCC4(C)C2CC1C1C(=O)N(CCCCCCN2C(=O)C4C5CC6C7(C)CCCC(C)(C(=O)O)C7CCC6(C=C5C(C)C)C4C2=O)C(=O)C13 (stereo not drawn) get here? inactive

Lab log entry: CCCC[S+]([O-])CCC(N)C(=O)O (stereo not drawn) — outcome as called in the assay? inactive

Short answer needed: outcome of this test for Clc1ccc(C(Cc2ccccc2)c2c(Cl)nc(N3CCNCC3)nc2Cl)cc1 (stereo not drawn) ? inactive

Identify the outcome logged in this assay for the compound shown: Brc1ccc(C2(N3CCCCC3)CCCCC2)s1 inactive

State the result this test recorded for COc1ccc(C2=NN(C(=O)c3cccnc3)C(O)(c3cc(F)c(Cl)cc3Cl)C2)cc1OC (stereo not drawn) . inactive

# fetch the recorded call for CC1=C(C)C(=O)c2c(cc3ccccn23)C1=O here inactive

Look up the recorded call for Cc1cc(=O)n2nc(CN3CCCCC3)sc2n1 in this test. inactive

Hi, do you know how CC1=NN(C(=O)Cc2ccccc2)C(=O)/C1=C\c1ccco1 came out in this test? inactive

Give the logged outcome of this assay for the following compound: COc1ccc2c3c([nH]c2c1)CCN(CCCC(=O)c1ccc(F)cc1)C3 inactive

Tell me the recorded outcome of this test for Cc1ccc(/C=C2\Cc3cccc(C)c3C2=O)c(C(=O)O)c1 . inactive

Per the records of this test, what outcome belongs to CCCN(CCC)C(=S)N/N=C/c1cccc(C)n1 ? active

Assay outcome for COc1ccc2c(NCCCCCCNc3c4ccccc4nc4cc(OC)ccc34)c3ccccc3nc2c1 : what was it? active

Returns: the outcome recorded for CCCCc1ccc(Nc2nc(Cl)c3[nH]cnc3n2)cc1 in this assay. inactive

For CC1(C)N=c2c(ncn2CCO)=C(C(N)=O)N1 , what call appears in the results of this test? inactive

Test call for this compound, please: COc1cc(C2c3cc4c(cc3OC(Nc3ccccc3)C2C)OCO4)cc(OC)c1O (stereo not drawn) inactive

Recorded test outcome, item O=[N+]([O-])c1cccc(C2=NOC3C4CCC(C4)C23)c1 (stereo not drawn) inactive

Outcome logged for COCCOCOC(CCCCO)c1cc(C)c(O[Si](C)(C)C(C)(C)C)c(C)c1 (stereo not drawn) in this assay: inactive

Called result for C=CCCC(=O)CC(=O)OCc1ccccc1 inactive

GET /call?item= CCCCCC(=O)OCC1(CO)C/C(=C\CC(C(C)C)C(C)C)C(=O)O1 (stereo not drawn) returns the recorded outcome of this test. inactive

Look up the recorded call for C=C(CC[C@@H](C)[C@H]1CC[C@@]2(C)C3=C(CC[C@]12C)[C@@]1(C)CC[C@H](O)[C@@H](C)C1CC3)C(C)C (stereo partly drawn) in this test. inactive

Record lookup: outcome of this test for O=C(/C=C/c1cccs1)c1ccc(C(=O)/C=C/c2cccs2)cc1 ? inactive

Call for entry Cc1ccc(/N=N/N(C)C(=O)C(C)N)cc1 (stereo not drawn) : inactive
